Tested on: MS2 coat protein
Experiment: apparent KD of MS2 coat protein; higher = weaker reporter binding
Cond: Eterna round: R107; input ligand: arginine 13.2 mM
Reported apparent KD of MS2 coat protein values are given for each entry in this list.
Please reply with the bare figure in nM and do not write the unit itself.

Example entries begin here.
GGCCGGUGCGCUUUGAAGCGACGGCGUGAUACCAGAUGUAAGAGCGUCCCUUGGCAGCACGUUUACAUGAGGAUCACCCAUGUCU [Zaveusxe] | 53.2
AUAACAUGAGGAUCACCCAUGUAAGCAGAUACCAGCUAGGAAACUAGCCCUUGGCAGCUGCAAUCCUCAUGUAUUGCAGCUGCAA [(M1)-(M2)-(T1)-(T2)-(M)'-(T)'_Design1] | 21.5
GGCCCACAUGAGGAUCACCCAUGUGUGGAUACCAGCCUCAUUUAGGGCCCUUGGCAGCCAGAUAGUAACAAGUCCGAAACACAGA [theeternabot_sameState_MS2_Theo_A_24] | 26.2
GGAUAGGACACGGCCGCCACUAGCUAGGAUACUAGCAACAUUUCCUCACAAGAGGAUCACCCUUGUAGGACCGGGUGUCCUAUCG | 84.9
AUCGUACCUGAUGAUACCAGCAAGUGAUCAUAACAUGAGGAUCACCCAUGUAAUCAGUGAUGCCCUUGGCAGCAUAAUCGAUACA [Same State - Theophylline B (Freestyle 4)] | 91.6

Here's the next entry for you.
Summary for this sequence, AUAGUCUUGAGUGAUACCAGACUACAUGAGGAUCACCCAUGUUUCUUUUGGUUAUCAUGUGUCCCUUGGCAGCACGCAUGUAUAG [JR_ExcTheophyB_Sub014] : apparent KD of MS2 coat protein is 17.5

====

Test system: K4 kissing-loop RNA reporter;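 note: bound reporter read as fluorescence of individual clusters on recovered sequencing chips by microscopy, with normalized cluster intensities fitted with a binding model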
Experiment: apparent KD of K4 kissing-loop reporter; higher = weaker reporter binding
Cond: Eterna round: R107; input ligand: theophylline 20 uM
Please mark Criterion met if the recorded apparent KD of K4 kissing-loop reporter is equal to or greater than 0.2 µM, and Criterion not met if it falls below.

GGAUAGGACGGAGGAUAUGGUAGUGAUGUUACCAAACUGGUUAAACAUGUCAGAAAACUGGCAUGACCAGAAGGCUGUCCUAUCG [FmnBX 27 G10] | Criterion not met
ACACUUUACGUAGGAUAUGCGACGAGUGAUGUUCGUCAGGCGGCUUGAGCUUAAACAGGCCGUCUAGCAGAAGGACGGGCAGUGU [Diorsodi] | Criterion not met

input: // inclusive: apparent KD of K4 kissing-loop reporter at least 0.2 µM? input: `CCGCUACCCUCAGGAUAUUAAUAUGGAGUGAUGUUCUAUGUCCGAUGGCGGAAACGCCAUCGGGAAUAAGAAGGGAGGGUAGCGG`
output: Criterion met

input: // inclusive: apparent KD of K4 kissing-loop reporter at least 0.2 µM? input: UGCGCUGUGUCCUAAAAUGUCCUCCGGGAUACCAGAGUCUUUUUAUUCCCUUGGCAGCUUGAGUGAUGUUUGAUGCCGUUCUUGU [xxbxymullin]
output: Criterion met

input: // inclusive: apparent KD of K4 kissing-loop reporter at least 0.2 µM? input: UCCUGCAGUCUGCCACGAAAGUGGAUUGAUACCAGAGUCGAAAGACUCCCUUGGCAGCGAGUGAUGUUCGAAGCAGGUAAAUAAA [MatMod 1 - Jieux - Exclusion - Theophylline A]
output: Criterion met

input: // inclusive: apparent KD of K4 kissing-loop reporter at least 0.2 µM? input: AAUAAAAUCACGGCCGCCACUGAUUUCCGUAUUAGGAGUGAUGUUCCUAUGACUAUAUAAUUUAACAGGACCGGGUGAAUAUUUA [#21 K4 Tryptophan B Exclusion]
output: Criterion not met

input: // inclusive: apparent KD of K4 kissing-loop reporter at least 0.2 µM? input: AUGUCUUAUAAACUCAUGGUUUCGAUCGAUACCAGUAGCGAGAGUUACCCUUGGCAGCGACAUGAGUGAUGUUCAUGUACGAAGA [KL-XTheoA5]
output: Criterion not met

input: // inclusive: apparent KD of K4 kissing-loop reporter at least 0.2 µM? input: AACGUUUUGUGAAGGAGCGCGAUAAGCAGUGAUGUUGCUUACUUACAAUUUAUAUUUUACACGCAGGUAGGUCGCACAAUACGUA [JR_SSArginiB_Sub017]
output: Criterion not met

input: // inclusive: apparent KD of K4 kissing-loop reporter at least 0.2 µM? input: GGAUAGGACGGAGGAUAUGGGCUAGGCAAGAAUAACUUGUCUAGCAAAUCCAUGAGGAGUGAUGUUCCAGAAGGUUGUCCUAUCG [FmnBX 1 G10+U75]
output: Criterion not met

input: // inclusive: apparent KD of K4 kissing-loop reporter at least 0.2 µM? input: UGUCAUUGGUCGGCCGCCACUAGGACCGGGUAUAACCUAGUGAUGUUAGUAAGUACGGCCGCCACUAGGACCGGGACCGAUGACU [KL-SSTryp-B19 #DoubleAptamer]
output: Criterion met

input: // inclusive: apparent KD of K4 kissing-loop reporter at least 0.2 µM? input: `GCCAGUGCACGAAGGAGCGCCGUGACAGGUUACUGCCUUGGGCAGUGAUGUUGCUCAAUCUGGCAGGUAGGUCGCGUGCACUGGC`
output: Criterion not met

input: // inclusive: apparent KD of K4 kissing-loop reporter at least 0.2 µM? input: AAAGUUGAUGAGUUGGGUAUGUGUUCCGAAGGAGCGAGAAUUAUCUCAGGUAGGUCGCGGAAGAUGAGUGAUGUUCAUCUAUAAA [KL-XArg-A8 #analogue]
output: Criterion not met

input: // inclusive: apparent KD of K4 kissing-loop reporter at least 0.2 µM? input: UGGCGGACGAUCCGGAGUGAUGUUCCGGAUACCAGCAGAAGAGCCUGCCCUUGGCAGCCGUACGACGCUGGGAGAGUCCGGCGUC [Soteina]
output: Criterion not met

input: // inclusive: apparent KD of K4 kissing-loop reporter at least 0.2 µM? input: ACACUUACACAUGAUACCAGAAUUCUACCGUAAAUAGUAAGUGAUGUUUGCUAACGGCUUUUCCCUUGGCAGCAUGAUCGGUAUU [theeternabot_sameState_KL_Theo_B_43]
output: Criterion met

input: // inclusive: apparent KD of K4 kissing-loop reporter at least 0.2 µM? input: AGCGGCCAGUCGGCCGCCACUCCGGGCAGUGAUGUUGCGAAGUGUCUACUAGAGUGAUGUUCUAAGAGGACCGGGACUGACGUAU [Exclusion Tryptophan B Gf 11]
output: Criterion met

input: // inclusive: apparent KD of K4 kissing-loop reporter at least 0.2 µM? input: AUUUUUUUAUCAGGAUAUUAGUGUUGGUUUGUUUUGUUAGUGAUGUUGAUAUUUGUUUUAUGUAUUUAAGAAGGGAUUGAGAUGU [huupullin]
output: Criterion met

input: // inclusive: apparent KD of K4 kissing-loop reporter at least 0.2 µM? input: CGCGCCCAGCCGGAUACCAGUGACCCGCUGGGAACCGCGGGCCCAGAGUGAUGUUCGGGACACCCUUGGCAGCCGCCUGGGCGAC [#2 Same State - Theophylline B Attempt #8 (HarryS)]
output: Criterion met

input: // inclusive: apparent KD of K4 kissing-loop reporter at least 0.2 µM? input: GGGAGUAGUGCGGCCGCCACUGUGAAAGUAGAAGAAUAUAGUGAUGUUAUAUAGGAAUAAAAGAAUAGGACCGGGCAUUAGAUUU [SSTRyptB.V]
output: Criterion met

input: // inclusive: apparent KD of K4 kissing-loop reporter at least 0.2 µM? input: GUUAAUAGUAGUGAUGUUACAAUAGUUUGUGAGGAUAUCCCGAAAGGGAGAAGGCACAAACAAAUAGAUUCUCACAAAUAUUUAC [FMN A exclusion]
output: Criterion met

input: // inclusive: apparent KD of K4 kissing-loop reporter at least 0.2 µM? input: UUUAAAUAUAGUGAUGUUAUAUAACAAUGACGAGGACCGGUACGGCCGCCACUCGAGAGAGAUAAUGGUCAUACAAAUGUAUGUC [AstrosSSTryA#7]
output: Criterion met

input: // inclusive: apparent KD of K4 kissing-loop reporter at least 0.2 µM? input: CUUAGGUCAGUUACCCGAGUGAUGUUCUGUCGAGGACCGGUACGGCCGCCACUCGCUCAUUAUCGGUCUGACAAAGAGCUGGCUU [theeternabot_exclusion_KL_Trp_A_9]
output: Criterion not met

input: // inclusive: apparent KD of K4 kissing-loop reporter at least 0.2 µM? input: UAGCGCAACCUGCUUACGUAUGAGCCGGAAGGAGCGGCAGAAUUGCCAGGUAGGUCGCCGGCCCAGUGAUGUUGGGAUGGUGUGG [Usritiis]
output: Criterion met

input: // inclusive: apparent KD of K4 kissing-loop reporter at least 0.2 µM? input: CCGUAUGUCCACUAUUGAGUGAUGUUCAAGCGAGGACCGGUACGGCCGCCACUCGCGUUACCCACCACGUGUCGCCGCACUUACC [theeternabot_exclusion_KL_Trp_A_42]
output: Criterion not met
